B1: TPR t1 (parent)
chain: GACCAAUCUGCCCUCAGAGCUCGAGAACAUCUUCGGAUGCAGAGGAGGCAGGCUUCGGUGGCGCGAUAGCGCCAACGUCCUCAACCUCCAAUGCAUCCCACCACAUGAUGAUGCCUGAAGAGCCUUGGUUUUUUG

Variants of: B1
Test: polymerase ribozyme fitness, log enrichment relative to wild type (log ratio); higher = more active; in vitro selection for triplet polymerase activity
Rule: polymerase ribozyme fitness (log ratio) of -2 or more gives MET; anything lower gives NOT MET.

1. C12U G61A A84U = MET
2. A66U C76U C89G C124U G128U U132C = NOT MET
3. U7A A50U G57A A83U = MET
4. G36U C40G = NOT MET
5. C104U G117A = MET
6. C34U G57A G107A U109A U116G = NOT MET
7. U7G G48U C53U A95C G117A = MET
8. A103C U109G U130C = NOT MET
9. A37G G42A G61A = MET
10. U32A A121U U133A = MET
11. C3U C8G G48U G93U = MET
12. G61A U112C G127C = MET
13. C3A C22G A37G A111G = NOT MET
14. A24G A119U = NOT MET
15. C3A G10A A75G C86G C98U G122A = NOT MET
16. G71A C98G = NOT MET
17. C31A C88G = NOT MET
18. C13A C40U C88U C101A U112A = NOT MET
19. C40A G57U G122U = NOT MET
20. G71U C101U = MET
21. G10U C73U U92A C101U C104U = NOT MET
22. C34G G117C C124A = NOT MET
23. A41U A50G G77A = MET
24. C8A G71A = MET
25. C28G C98U C124U = NOT MET
26. A5G C64G G69A A83U = NOT MET
27. C11G C64U C115U U130A = MET
28. A5C C28A G47U C53G G93U = NOT MET
29. G71A U92G = NOT MET
30. C89U U92G = MET
31. G39C G69A G127U = NOT MET
32. U33A C72U = NOT MET
33. C56A C82A G128A = NOT MET
34. G47U G57A C73A C85G U106A U133A = NOT MET
35. G17U A43C U59G C62G A75G C115U C124G = NOT MET
36. C49U G65C C104G C123A = NOT MET
37. G63A A74U A95U = NOT MET
38. G42U C94U U126A U129G = NOT MET
39. U7A C101A = MET
40. G63U C72U C115A = MET
41. G10C C15G G69C = NOT MET

# credit: the RNAGym collection of RNA variant scans (doi:10.1073/pnas.2313332121)
